system: L1210 leukemia ip in BDF1 mice, survival T/C; assay: NCI In Vivo Anticancer Drug Screen. Data for tumor model L1210 Leukemia (intraperitoneal) in B6D2F1 (BDF1) mice; conditions: endpoint: mean survival time; dose: 50.0 mg/kg/injection; schedule: Q04DX003 (ip); vehicle: saline with Tween-80; higher = longer survival
Toxic doses and inconclusive results are not listed.
quantityMeasured: T/C

compound | result
OCC1C2CCC(CC2)C1CO (stereo not given) | 102 % of control
CNC(=O)Nc1nnnc2ccccc12 | 94 % of control
Cc1ccc(S(=O)(=O)N/N=C2/CC3CCC(C)(C2)C3)cc1 (stereo not given) | 93 % of control
C=CCCN1CCCC1 | 109 % of control
C/C(=N\NC(N)=S)c1cccs1 | 101 % of control
c1ccc2sc(SCSc3nc4ccccc4s3)nc2c1 | 93 % of control
C=CCN(CC=C)c1nc(OC)nc(OC)n1 | 95 % of control
O=C(O)C(Cc1ccccc1)N1C(=O)C2C3CCC(C3)C2C1=O (stereo not given) | 93 % of control
Nc1ccnc2snnc12 | 93 % of control
CC1CC(C)(C)N=C(CCC2CCCC2=O)O1 (stereo not given) | 95 % of control
Cc1c(N)cccc1N | 117 % of control
CCCCCOS(=O)(=O)c1ccc(Cl)c([N+](=O)[O-])c1 | 90 % of control
CCN(CC)CCOc1cccc(C)c1C | 98 % of control
CCCCCCCCCCCCSC(=N)N | 95 % of control
CCN(CC)Cc1cc(Nc2cc(C)nc(Nc3ccc(Cl)c(Cl)c3)n2)ccc1OC | 101 % of control

Reference source: PubChem BioAssay AID248
